protocol: Ratio of drug concentration in brain to plasma in STZ-induced diabetic peripheral neuropathic mechanical allodynia in overnight fasted Sprague-Dawley rat at 1 mg/kg, po measured at 5.5 hrs post dose
Format: ADME, organism-based

{"item smiles": "CC(=O)Nc1cc(-c2ccc(OC[C@@H](N)CC(C)C)c(F)c2)ccn1", "Kp at 5.5 h": 1}

====

measurement target: UniProtKB P08684
Sequence (P08684 whole entry): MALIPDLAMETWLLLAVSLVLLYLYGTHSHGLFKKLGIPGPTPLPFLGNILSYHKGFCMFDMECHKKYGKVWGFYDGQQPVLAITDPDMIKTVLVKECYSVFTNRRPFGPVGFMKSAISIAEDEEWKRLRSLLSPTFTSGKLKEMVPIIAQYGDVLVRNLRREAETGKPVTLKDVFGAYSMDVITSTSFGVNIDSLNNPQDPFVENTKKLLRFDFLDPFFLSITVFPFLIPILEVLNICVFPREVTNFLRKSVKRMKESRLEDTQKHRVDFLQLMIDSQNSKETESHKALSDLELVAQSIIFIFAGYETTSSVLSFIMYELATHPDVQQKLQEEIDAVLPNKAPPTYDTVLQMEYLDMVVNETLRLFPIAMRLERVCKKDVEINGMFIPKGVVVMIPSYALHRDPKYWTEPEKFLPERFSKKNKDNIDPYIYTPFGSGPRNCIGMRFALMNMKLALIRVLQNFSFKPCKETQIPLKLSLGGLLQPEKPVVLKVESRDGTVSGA
protocol: Time dependent inhibition of […] (unknown origin) using BFC as substrate incubated for 5 mins in presence of NADPH by LC-MS/MS analysis
Format: ADME

{"item smiles": "COC(=O)Nc1cc(-c2cnc(OC[C@@](C)(N)CC(C)C)c(C)c2)ccn1", "IC50": "> 20 µM"}
{"item smiles": "CC(C)C[C@](C)(N)COc1cnc(-c2ccnc(C(F)F)c2)cc1C(F)F", "IC50": "> 20 µM"}
